# measured on: T1, human pIgR extracellular domain (ECD) (human, UniProt P01833 19-638)
# T1 construct: also called hpIgR ECD
# experiment summary: ECL (MSD), hpIgR-ECD coated, anti-VHH detection
experimental endpoint: pEC50
pEC50 is defined as minus the log10 of a concentration measured in mol/L.

{"binder": "VHH3-linker-mono-Fc protein (Fc fusion, made in CHO cells; also called VHH3-mono-Fc; hpIgR_021) QLQLVESGGGLVQPGGSLRLSCAASGSIFSINVMGWYRQAPGKQRELVARINGGGITHYAESVKGRFTISRDNAKNTVYLQMNSLKPEDTAAYYCKADVFGSSGYVETYWGQGTQVTVSSEPKTPKPQPQPQLQPQPNPTTESKSPKSPAPELLGGPSVFLFPPKPKDTLMISRTPEVTCVVVDVSHEDPEVKFNWYVDGVEVHNAKTKPREEQYNSTYRVVSVLTVLHQDWLNGKEYKCKVSNKALPAPIEKTISKAKGQPREPQVYTKPPSREEMTKNQVSLSCLVKGFYPSDIAVEWESNGQPENNYKTTVPVLDSDGSFRLASYLTVDKSRWQQGNVFSCSVMHEALHNHYTQKSLSLSPGK", "reported": 7.54}

# context switch: different binder, same pEC50
**Q:** What does the data say about its pEC50? Entry: VHH5-linker-mono-Fc protein (Fc fusion, made in CHO cells; also called VHH5-mono-Fc; hpIgR_175) QVQLVESGGGLVQAGGSLRLSCAASGRTFSSYAMGWFRQAPGKEREFVAAITWNGGTTYYADSVKGRFTISRDNAKNTVYLQMNSLKPEDTAVYYCAADPFNQGYWGQGTQVTVSSEPKTPKPQPQPQLQPQPNPTTESKSPKSPAPELLGGPSVFLFPPKPKDTLMISRTPEVTCVVVDVSHEDPEVKFNWYVDGVEVHNAKTKPREEQYNSTYRVVSVLTVLHQDWLNGKEYKCKVSNKALPAPIEKTISKAKGQPREPQVYTKPPSREEMTKNQVSLSCLVKGFYPSDIAVEWESNGQPENNYKTTVPVLDSDGSFRLASYLTVDKSRWQQGNVFSCSVMHEALHNHYTQKSLSLSPGK
**A:** 6.75
